tested-on: Kv7.2 (Homo sapiens)
measurement-notes: Activation of Kv7.2 (in vitro assay, concentration response curve)
particulars: activation of Kv7.2
I'd appreciate it if you could supply pEC50 values for the items below.
One number for each entry, as −log10 of the molar value.

Example entries begin here.
| molecule | experimental-value |
| --- | --- |
| O=C(NCc1ccnc(OCC(F)(F)F)c1)N[C@H]1CC[C@@H](C(F)(F)F)C1 (racemic) | 7.00 |
| O=C(NCc1ccnc(OC(F)F)c1)N[C@@H]1CC[C@H](C(F)(F)F)C1 (racemic) [Example 59] | 6.96 |

State the recorded pEC50 for every item in the following list.
1. O=C(NCc1ccnc(OC(F)F)c1)N[C@@H]1CC[C@H](C(F)(F)F)C1 [Example 146]
2. CC(F)(F)c1cc(CNC(=O)Nc2cccc(Cl)c2)ccn1
3. O=C(NCc1ccnc(OCC(F)(F)F)n1)Nc1cccc(Cl)c1
4. O=C(NCc1ccnc(OC(F)F)c1)NC1CC1(F)F (stereo not drawn)
5. O=C(NCc1cc(OC(F)F)ncc1F)N[C@H]1C[C@H](C(F)(F)F)C1

RESULT:
1: 6.80; 2: 6.10; 3: 6.68; 4: 5.36; 5: 6.48

State the recorded pEC50 for every item in the following list.
1. O=C(NCc1ccnc(OCC(F)(F)F)c1)Nc1cccc(F)c1F
2. O=C(NCc1ccnc(OCC(F)(F)F)c1)NC(C(F)(F)F)C(F)(F)F

RESULT:
1: 6.85; 2: 6.42
